B1: Osa-1-4 twister ribozyme (parent)
chain: CCGCCUAACACUGCCAAUGCCGGUCCCAAGCCCGGAUAAAAGUGGAGGGGGCGG

- Variants of: B1
- ASSAY_NOTES: self-cleavage, relative activity (ratio to wild type); higher = more cleavage; co-transcriptional
The label depends only on self-cleavage: true if it is at least 0.06, false if it is smaller.

Take a look at these entries with their results.
>>> assigned_category("A17C G30A")
"false"
>>> assigned_category("C11G C25G")
"false"

Is reported self-cleavage greater than or equal to 0.06 here: A41C A8U true

Given A38G C32U , state whether its self-cleavage is at least 0.06. true

API: above_or_equal(metric=self-cleavage, cutoff=0.06) for item A46G C15G false
